Each entry below carries its recorded Time.
system: Mus musculus; assay: Antagonist activity at nigrostriatal dopaminergic D2 receptor in Swiss albino Mus musculus (mouse) assessed as maximum average cataleptic time at 10 mg/kg, ip after 1 to 5 hr relative to vehicle-treated control; type: organism-based; parameters: dose 10 mg/kg, route intraperitoneal; conditions: in vivo
Give just the number in s; leave the unit off.

# Time lookup, item Cc1nc(-c2ccc(CCN3CCN(c4nc5ccccc5nc4Cl)CC3)cc2)c(C)s1
9.25

# Time lookup, item Cc1nc(-c2ccc(CCN3CCN(c4cnc5ccccc5n4)CC3)cc2)cs1
5.17

# Time lookup, item COc1nc2ccccc2nc1N1CCN(CCc2ccc(-c3csc(N)n3)cc2)CC1
14.12

Recorded values, source ChEMBL document CHEMBL3044879.
